test.target: Type-A CCK receptor (Cavia porcellus, UniProt Q63931)
Construct: Cortical and pancreatic membranes were prepared as described; from tissue; host or cells: guinea pig pancreas membranes
Sequence (Q63931 1-430): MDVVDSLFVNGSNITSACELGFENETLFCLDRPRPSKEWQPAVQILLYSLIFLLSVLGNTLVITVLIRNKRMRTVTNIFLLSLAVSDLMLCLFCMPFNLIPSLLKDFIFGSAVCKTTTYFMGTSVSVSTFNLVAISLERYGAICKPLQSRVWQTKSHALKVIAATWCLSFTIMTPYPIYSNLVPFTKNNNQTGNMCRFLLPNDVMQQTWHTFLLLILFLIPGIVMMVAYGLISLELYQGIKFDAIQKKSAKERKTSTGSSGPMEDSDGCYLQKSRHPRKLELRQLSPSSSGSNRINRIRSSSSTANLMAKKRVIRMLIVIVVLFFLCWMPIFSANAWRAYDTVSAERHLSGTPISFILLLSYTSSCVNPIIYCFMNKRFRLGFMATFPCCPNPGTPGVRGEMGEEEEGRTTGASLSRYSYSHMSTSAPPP
procedure.details: Radioligand binding of [125I]BH-CCK-8 in guinea pig pancreatic membrane preparations
pIC50: −log10 of the molar value. *1 amine or outer side, *2 acyl side, *3 side chain or, on linkers, in order; H or OH if unused. Where a SMILES comes first, the peptide text is derived from it. Side-chain parts run from the residue outwards. [ ]: non-standard residue; d: D form. The star is where a group is joined. NMeF = CN[C@@H](Cc1ccccc1)C(=O)O; NMeD = CN[C@@H](CC(=O)O)C(=O)O; NH(2-Me-phenyl) = Cc1ccccc1N*; X13 = O=C(C=Cc1ccc(F)cc1)*; Boc = CC(C)(C)OC(=O)*; CO = O=C([*:1])[*:2]; X6 = O=C(Oc1ccccc1)*
measurement.kind: pIC50

[[record]]
molecule = "Cc1ccccc1/N=C(/S)NCCCC[C@H](NC(=O)[C@H](Cc1c[nH]c2ccccc12)NC(=O)OC(C)(C)C)C(=O)N[C@@H](CC(=O)O)C(=O)N[C@@H](Cc1ccccc1)C(N)=O [Example 38]"
measured_result = 6.64

[[record]]
molecule = "Cc1ccccc1NC(=O)NCCCC[C@H](NC(=O)[C@H](Cc1c[nH]c2ccccc12)NC(=O)Oc1ccccc1)C(=O)N[C@@H](CC(=O)O)C(=O)N(C)[C@@H](Cc1ccccc1)C(N)=O [Example 79] (X6-WK([CO-NH(2-Me-phenyl)])D[NMeF]-NH2)"
measured_result = 8.00

[[record]]
molecule = "CC(C)(C)OC(=O)N[C@@H](Cc1c[nH]c2ccccc12)C(=O)N[C@@H](CCCCNC(=O)C=Cc1ccc(F)cc1)C(=O)N[C@@H](CC(=O)O)C(=O)N[C@@H](Cc1ccccc1)C(N)=O [Example 7] (Boc-WK(X13)DF-NH2)"
measured_result = 7.19

[[record]]
molecule = "Cc1ccccc1NC(=O)NCCCC[C@H](NC(=O)[C@H](Cc1c[nH]c2ccccc12)NC(=O)OC(C)(C)C)C(=O)N(C)[C@@H](CC(=O)O)C(=O)N(C)[C@@H](Cc1ccccc1)C(N)=O [Example 61] (Boc-WK([CO-NH(2-Me-phenyl)])[NMeD][NMeF]-NH2)"
measured_result = 8.32

